System: Plasmodium falciparum
Experiment: Antimalarial activity against Plasmodium falciparum infected in RBC after 5 days by MTT assay
Type: functional
Flag rule - EC50 less than 1000 ppm flags 1; the remaining entries get -1.

As a guide, the following entries are already answered.
CC(C)CC(NS(=O)(=O)c1ccc(N)cc1)c1nc2ccccc2c(=O)n1-c1ccccc1Br (stereo unspecified); -1
CCN(CC)CCCC(C)Nc1ccnc2cc(Cl)ccc12 (stereo unspecified); 1
CC(C)CC(NS(=O)(=O)c1ccc(N)cc1)c1nc2ccccc2c(=O)n1-c1ccc(Br)cc1 (stereo unspecified); -1

Query: Problem: For the molecule CC(C)CC(NS(=O)(=O)c1ccc(N)cc1)c1nc2ccccc2c(=O)n1-c1ccc(Cl)cc1 (stereo unspecified) , is EC50 under 1000 ppm?
Reply: 1

Query: # TODO verify EC50 < 1000 ppm strictly for this molecule: CC(C)CC(NS(=O)(=O)c1ccc(N)cc1)c1nc2ccccc2c(=O)n1-c1cccc(Cl)c1 (stereo unspecified)
Reply: 1

* * *

Target: Dihydrofolate reductase (Bos taurus, UniProt P00376)
Sequence (P00376 whole entry): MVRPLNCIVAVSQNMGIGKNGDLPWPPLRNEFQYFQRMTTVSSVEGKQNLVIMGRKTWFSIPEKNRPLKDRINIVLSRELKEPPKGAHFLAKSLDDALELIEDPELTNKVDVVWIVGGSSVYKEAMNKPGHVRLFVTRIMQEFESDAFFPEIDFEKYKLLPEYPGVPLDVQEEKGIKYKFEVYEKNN
property: IC50 (nM)
Dear colleague, please return just the value in nM, with no unit written.

The compound CC(C)CC(NS(=O)(=O)c1ccc(N)cc1)c1nc2ccccc2c(=O)n1-c1ccc(Cl)cc1 (stereo unspecified) on Dihydrofolate reductase (Bos taurus, UniProt P00376): IC50 was 56.3
